Target: human recombinant Yes [a.a. 2–543 (end)] (Homo sapiens, UniProt P07947)
Construct: human recombinant Yes [a.a; 2–543 (end)]; purchased BPS Bioscience 40488
Sequence (P07947 2-543): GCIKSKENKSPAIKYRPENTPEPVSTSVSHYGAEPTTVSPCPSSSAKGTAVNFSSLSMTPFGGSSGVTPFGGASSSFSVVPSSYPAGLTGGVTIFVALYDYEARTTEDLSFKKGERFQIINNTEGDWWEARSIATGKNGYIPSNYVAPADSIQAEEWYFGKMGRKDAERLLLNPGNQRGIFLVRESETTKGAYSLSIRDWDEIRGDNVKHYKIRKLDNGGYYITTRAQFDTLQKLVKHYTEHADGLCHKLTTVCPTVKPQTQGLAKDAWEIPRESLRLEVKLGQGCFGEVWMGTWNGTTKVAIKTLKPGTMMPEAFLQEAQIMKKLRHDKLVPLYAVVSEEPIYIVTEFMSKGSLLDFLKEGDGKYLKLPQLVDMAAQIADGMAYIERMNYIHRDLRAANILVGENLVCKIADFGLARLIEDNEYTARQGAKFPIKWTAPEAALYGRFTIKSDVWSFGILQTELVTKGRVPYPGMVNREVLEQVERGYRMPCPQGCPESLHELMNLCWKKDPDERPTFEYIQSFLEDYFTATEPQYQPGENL
Experiment: ADP-Glo kinase assay, inhibition rates of Yes phosphorylation activity (first and second screening)
Assay type: biochemical
Conditions: first screening; mean of n = 4 wells; 10 μmol L−1 compound
measure: First screening IR (inhibition rate) (%)

| molecule | value-reported |
| --- | --- |
| O=C(/C=C/c1cccnc1)c1ccc(N2CCOC2=O)cc1 | 16 |
| Cc1nnc(COC(=O)c2cc(-c3ccccc3)nc3c2cnn3C(C)C)o1 | -3 |
| C(=C\c1nc2cc(-c3ccccc3)ccc2o1)/c1cccnc1 | 11 |
| Cc1ccccc1-n1c(=O)c2ccccc2n2c(=S)n(CN3CCN(CCC(C)C)CC3)nc12 | 44 |
| CC(C)(C)OC(=O)N1CC(NC(=O)c2cc3c(F)cc(Br)cc3[nH]2)C1 | -12 |
| O=C(Nc1nc2ccccc2[nH]1)c1ccc(N2CCCC2=O)cc1 | 8 |
| CCn1ncc2c(C(=O)Nc3ncc(C)s3)cc(-c3ccccc3)nc21 | 10 |
| CCCn1c(CSc2ncn(-c3ccccc3)n2)nc2cc(S(=O)(=O)N(C)C)ccc21 | -10 |

P. CC(c1ccccc1)N1C(=O)C(=O)N(CC(=O)c2cccn2C)C1=O (centres unmarked)
Q. Nc1nc(CSc2ncc(-c3ccc(F)cc3)o2)nc2ccccc12
R. CN(C(=O)c1ccc(NC(=O)C2CCCO2)cc1Cl)C1CCCCC1 (centres unmarked)
S. Cc1cc(N2CCCC(N3CCN(C(=O)c4ccncc4)CC3)C2=O)n(C)n1 (centres unmarked)
T. CCN(C(=O)CN(C)CC(=O)Nc1c(C)cc(C)cc1C)c1cccc2ccccc12
hey, can you rank those molecules up there by First screening IR (inhibition rate)? biggest number first please Write the labels in rank order as requested.
S, R, T, P, Q

A. CS(=O)(=O)c1ccc(N2CCCC2)c(S(C)(=O)=O)c1
B. Cc1sc2nc(CN3CCC(C)CC3)nc(N3CCN(C(=O)c4ccccc4F)CC3)c2c1C
C. Cc1nccn1-c1cncc(N2CCC3(CCCC3)CC2)n1
Put these in order: smallest First screening IR (inhibition rate) first, largest last. To answer, arrange all of the labels according to the requested order.
B, A, C
